- assay-text: Exposed Polar Surface Area (EPSA)
- Assay type: physicochemical
- study-conditions: SFC on Chirex 3014 column; sample 1 mM DMSO stock; read-out: EPSA
- Experimental: Exposed Polar Surface Area (EPSA) is an experimental descriptor of molecular polarity obtained from chromatographic retention in supercritical fluid chromatography (SFC). […] Along with the measurement of compounds of interest, a series of 8 calibration standards (see Materials) are analyzed generating a linear relationship between retention times and EPSA value. […]
Positions of bridges follow the written chain, without caps; N, C: chain ends. Non-standard residues stand in square brackets, D forms with d. Residues, ends and D or L forms follow the SMILES beside them. Trp(7-Me) = Cc1cccc2c(C[C@H](N)C(=O)O)c[nH]c12; 2Nal = N[C@@H](Cc1ccc2ccccc2c1)C(=O)O; AEF = NCCOc1ccc(C[C@H](N)C(=O)O)cc1; Pen = CC(C)(S)[C@H](N)C(=O)O; Thp = NC1(C(=O)O)CCOCC1
measured-endpoint: EPSA (A^2)
A number alone suffices; assume A^2.

(Q) Quick check: EPSA of CC(=O)NCCCC[C@@H]1NC(=O)[C@H](Cc2c[nH]c3c(-c4cccc(NC(C)=O)c4)cccc23)NC(=O)[C@H]([C@@H](C)O)NC(=O)[C@H](CC(N)=O)NC(=O)[C@@H](NC(=O)CCOCCOCC[N+](C)(C)C)C(C)(C)SSC(C)(C)[C@@H](C(=O)N[C@@H](Cc2ccc(OCCCCC[N+](C)(C)C)cc2)C(=O)N[C@@H](Cc2ccc3ccccc3c2)C(=O)NC2(C(=O)N[C@@H](CCCCN(C)C(C)=O)C(=O)N[C@@H](CC(N)=O)C(=O)N[C@@H](Cc3cncc(C)c3)C(=O)N(C)CC(N)=O)CCOCC2)NC1=O [compound 501] ?
(A) 175

(Q) Can you share its EPSA? I mean this compound: CC(=O)NCCCC[C@@H]1NC(=O)[C@H](Cc2c[nH]c3c(C)cccc23)NC(=O)[C@H]([C@@H](C)O)NC(=O)[C@H](CC(N)=O)NC(=O)[C@@H](NC(C)=O)C(C)(C)SSC(C)(C)[C@@H](C(=O)N[C@@H](Cc2ccc(OCCN)cc2)C(=O)N[C@@H](Cc2ccc3ccccc3c2)C(=O)NC2(C(=O)N[C@@H](CCCCNC(C)=O)C(=O)N[C@@H](CC(N)=O)C(=O)N(C)C)CCOCC2)NC1=O [compound 153] (Ac-[Pen]NT[Trp(7-Me)]K(Ac)[Pen][AEF][2Nal][Thp]K(Ac)N-NMe2; disulfide 1-6 (inferred))
(A) 171

(Q) Param item = CC(=O)NCCCC[C@@H]1NC(=O)[C@H](Cc2c[nH]c3c(-c4cccc(NC(C)=O)c4)cccc23)NC(=O)[C@H]([C@@H](C)O)NC(=O)[C@H](CC(N)=O)NC(=O)[C@@H](NC(C)=O)C(C)(C)SSC(C)(C)[C@@H](C(=O)N[C@@H](Cc2ccc(OCCNC(=N)N)cc2)C(=O)N[C@@H](Cc2ccc3ccccc3c2)C(=O)NC2(C(=O)N[C@@H](CCCCN(C)C(C)=O)C(=O)N[C@@H](CC(N)=O)C(=O)N[C@@H](Cc3cncc(C)c3)C(=O)N(C)CC(N)=O)CCOCC2)NC1=O [compound 482] ; retrieve measured EPSA.
(A) 180

(Q) GET /values?readout=EPSA&item= CC(=O)NCCCC[C@@H]1NC(=O)[C@H](Cc2c[nH]c3c(C)cccc23)NC(=O)[C@H]([C@@H](C)O)NC(=O)[C@H](CC(N)=O)NC(=O)[C@@H](NC(=O)COCCOCCNC(=O)COCCOCCNC(=O)COc2ccc(-c3ccc(F)cc3F)cc2C(=O)O)C(C)(C)SSC(C)(C)[C@@H](C(=O)N[C@@H](Cc2ccc(OCCCCC[N+](C)(C)C)cc2)C(=O)N[C@@H](Cc2ccc3ccccc3c2)C(=O)NC2(C(=O)N[C@@H](CCCCN(C)C(C)=O)C(=O)N[C@@H](CC(N)=O)C(=O)N[C@@H](Cc3cccnc3)C(=O)N(C)CC(N)=O)CCOCC2)NC1=O [compound 490]
(A) 182

====

- assay-text: Exposed Polar Surface Area (EPSA)
- Assay type: physicochemical
- study-conditions: SFC on Chirex 3014 column; sample 1 mM DMSO stock; read-out: EPSA
Listed below: EPSA values for each entry.
Express your answer in A^2, writing the number without its unit.

>>> quantitative_result("CC(=O)NCCCC[C@@H]1NC(=O)[C@H](Cc2c[nH]c3c(C)cccc23)NC(=O)[C@H]([C@@H](C)O)NC(=O)[C@H](CC(N)=O)NC(=O)[C@@H](NC(=O)CCOCCOCC[N+](C)(C)C)C(C)(C)SSC(C)(C)[C@@H](C(=O)N[C@@H](Cc2ccc(OCCN)cc2)C(=O)N[C@@H](Cc2ccc3ccccc3c2)C(=O)NC2(C(=O)N[C@@H](CCC(=O)O)C(=O)N[C@@H](CC(N)=O)C(=O)N[C@@H](Cc3cncc(C)c3)C(=O)N(C)CC(N)=O)CCOCC2)NC1=O")
191
>>> quantitative_result("CC(=O)NCCCC[C@@H]1NC(=O)[C@H](Cc2c[nH]c3c(C)cccc23)NC(=O)[C@H]([C@@H](C)O)NC(=O)[C@H](CC(N)=O)NC(=O)[C@@H](NC(C)=O)C(C)(C)SSC(C)(C)[C@@H](C(=O)N[C@@H](Cc2ccc(OCCCCC[N+](C)(C)C)cc2)C(=O)N[C@@H](Cc2ccc3ccccc3c2)C(=O)NC2(C(=O)N[C@@H](CCCCNC(=O)COc3ccc(-c4ccc(F)cc4F)cc3C(=O)O)C(=O)N[C@@H](CC(N)=O)C(=O)N[C@@H](Cc3cccnc3)C(=O)N(C)CC(N)=O)CCOCC2)NC1=O")
184
>>> quantitative_result("CC(=O)NCCCC[C@@H]1NC(=O)[C@H](Cc2c[nH]c3c(C)cccc23)NC(=O)[C@H]([C@@H](C)O)NC(=O)[C@H](CC(N)=O)NC(=O)[C@@H](NC(=O)C(COCCOCC[N+](C)(C)C)NC(C)=O)C(C)(C)SSC(C)(C)[C@@H](C(=O)N[C@@H](Cc2ccc(OCCCCC[N+](C)(C)C)cc2)C(=O)N[C@@H](Cc2ccc3ccccc3c2)C(=O)NC2(C(=O)N[C@@H](CCC(=O)O)C(=O)N[C@@H](CC(N)=O)C(=O)N[C@@H](Cc3cccnc3)C(=O)N(C)CC(N)=O)CCOCC2)NC1=O (mixture of isomers)")
171

Below: the item to evaluate.
(Q) Quick one: EPSA for CC(=O)NCCCC[C@@H]1NC(=O)[C@H](Cc2c[nH]c3c(C)cccc23)NC(=O)[C@H]([C@@H](C)O)NC(=O)[C@H](CC(N)=O)NC(=O)[C@@H](NC(C)=O)C(C)(C)SSC(C)(C)[C@@H](C(=O)N[C@@H](Cc2ccc(OCC[N+]3(C)CCOCC3)cc2)C(=O)N[C@@H](Cc2ccc3ccccc3c2)C(=O)NC2(C(=O)N[C@@H](CCCCNC(C)=O)C(=O)N[C@@H](CC(N)=O)C(=O)N[C@@H](Cc3cccnc3)C(=O)N(C)CC(N)=O)CCOCC2)NC1=O ?
(A) 166

====

- assay-text: Exposed Polar Surface Area (EPSA)
- Type: physicochemical
- study-conditions: SFC on Chirex 3014 column; sample 1 mM DMSO stock; read-out: EPSA
measured-endpoint: EPSA (A^2)
Write the answer as a number in A^2, unit excluded.

>>> quantitative_result("CC(=O)NCCCC[C@@H]1NC(=O)[C@H](Cc2c[nH]c3c(C)cccc23)NC(=O)[C@H]([C@@H](C)O)NC(=O)[C@H](CC(N)=O)NC(=O)[C@@H](NC(C)=O)C(C)(C)SSC(C)(C)[C@@H](C(=O)N[C@@H](Cc2ccc(OCCN)cc2)C(=O)N[C@@H](Cc2ccc3ccccc3c2)C(=O)NC2(C(=O)N[C@@H](CCC(=O)O)C(=O)N[C@@H](CC(N)=O)C(=O)N[C@@H](Cc3cccnc3)C(=O)N(C)CC(=O)N3CCOCC3)CCOCC2)NC1=O")
169

(Q) So what does the record say about EPSA for CC(=O)NCCCC[C@@H]1NC(=O)[C@H](Cc2c[nH]c3c(C)cccc23)NC(=O)[C@H]([C@@H](C)O)NC(=O)[C@H](CC(N)=O)NC(=O)[C@@H](NC(=O)CCCc2ccc(I)cc2)C(C)(C)SSC(C)(C)[C@@H](C(=O)N[C@@H](Cc2ccc(OCCCCC[N+](C)(C)C)cc2)C(=O)N[C@@H](Cc2ccc3ccccc3c2)C(=O)NC2(C(=O)N[C@@H](CCCCNC(C)=O)C(=O)N[C@@H](CC(N)=O)C(=O)N[C@@H](Cc3cccnc3)C(=O)N(C)CC(N)=O)CCOCC2)NC1=O ?
(A) 168

====

- assay-text: Exposed Polar Surface Area (EPSA)
- Assay type: physicochemical
- study-conditions: SFC on Chirex 3014 column; sample 1 mM DMSO stock; read-out: EPSA
measured-endpoint: EPSA
I'd appreciate it if you included the unit after the number.

>>> result("CC(=O)NCCCC[C@@H]1NC(=O)[C@H](Cc2c[nH]c3c(C)cccc23)NC(=O)[C@H]([C@@H](C)O)NC(=O)[C@H](CC(N)=O)NC(=O)[C@@H](NC(C)=O)C(C)(C)SSC(C)(C)[C@@H](C(=O)N[C@@H](Cc2ccc(OCC[N+](C)(C)C)cc2)C(=O)N[C@@H](Cc2ccc3ccccc3c2)C(=O)NC2(C(=O)N[C@@H](CCCCNC(C)=O)C(=O)N[C@@H](CC(N)=O)C(=O)N[C@@H](Cc3cccnc3)C(=O)N(C)CC(N)=O)CCOCC2)NC1=O")
"163 A^2"

API: the following record is the query input.
(Q) // query EPSA value for entry CC(=O)NC(COCCOCC[N+](C)(C)C)C(=O)N[C@@H]1C(=O)N[C@@H](CC(=O)N(C)C)C(=O)N[C@@H]([C@@H](C)O)C(=O)N[C@@H](Cc2c[nH]c3c(C)cccc23)C(=O)N[C@@H](CCCCN(C)C(C)=O)C(=O)N[C@H](C(=O)N[C@@H](Cc2ccc(OCCOCCOCC[N+](C)(C)C)cc2)C(=O)N[C@@H](Cc2ccc3ccccc3c2)C(=O)NC2(C(=O)N[C@@H](CCCCN(C)C(C)=O)C(=O)N[C@@H](CC(N)=O)C(=O)N[C@@H](Cc3cccnc3)C(=O)N(C)CC(=O)N(C)C)CCOCC2)C(C)(C)SSC1(C)C (relative stereo)
(A) 151 A^2
